Molecular target: GSK3α (Homo sapiens)
Assay: GSK3α kinase assay (Caliper LabChip, fluoresceinated peptide substrate)
Assay type: biochemical
// map IC50 to label using low (below 0.5 nM), intermediate (0.5 nM to below 3 nM), high (3 nM or more)

// below: answered molecules
molecule=CC(C)(C)COc1ccncc1NC(=O)c1ccnc(Nc2ccc(C#N)cn2)c1 assigned_category=intermediate
molecule="CC(O)c1ccncc1NC(=O)c1ccnc(Nc2ccc(C(F)(F)F)cn2)c1 (stereo not drawn)" assigned_category=intermediate
molecule=O=C(Nc1cncc(-c2ccccc2F)c1)c1ccnc(Nc2ccc3cnccc3n2)c1 assigned_category=low
molecule=O=C(Nc1cncnc1Br)c1ccnc(Nc2ccc(C(F)(F)F)cn2)c1 assigned_category=high
molecule=CC1(COc2cncc(NC(=O)c3ccnc(Nc4cccc(C(F)(F)F)n4)c3)c2)CC1 assigned_category=high
molecule=O=C(Nc1cnccc1-c1ccc(F)cc1)c1ccnc(Nc2ccc(Cl)cn2)c1 assigned_category=low
molecule=O=C(Nc1cnc(F)cc1N1CCC(F)(F)CC1)c1ccnc(Nc2ccc(C(F)(F)F)cn2)c1 assigned_category=low
molecule=O=C(Nc1cncc(-c2ccccc2Cl)c1)c1ccnc(Nc2ccc(C(F)(F)F)cn2)c1 assigned_category=high
molecule=O=C(Nc1cnccc1SCC(F)(F)F)c1ccnc(Nc2ccc(C(F)(F)F)cn2)c1 assigned_category=intermediate
molecule=O=C(Nc1cnc(Cl)cc1S(=O)(=O)C1CC1)c1ccnc(Nc2ccc(C(F)(F)F)cn2)c1 assigned_category=high

Proceed to the following item.
Sort into band: CC(C)C(O)c1cc(Cl)ncc1NC(=O)c1ccnc(Nc2ccc(C(F)(F)F)cn2)c1 (stereo not drawn)
high

* * *

Target: UniProt:P49841
Assay: GSK3β kinase assay (Caliper LabChip, fluoresceinated peptide substrate)
Assay type: biochemical
Conditions: first value of the cell; 250 pM enzyme, 20 uM ATP, 20 hours at room temperature; read-out: GSK3β/α (nM): GSK3β IC50
Protocol: The kinase assay was performed in V-bottom 384-well plates. […] The reaction was incubated at room temperature for 20 hours and terminated by adding 45 μl of 35 mM EDTA to each sample. The reaction mixture was analyzed on the Caliper LabChip3000 (Caliper, Hopkinton, Mass.) by electrophoretic separation of the unphosphorylated substrate and phosphorylated product. […] Compounds were dissolved at 10 mM in dimethylsulfoxide (DMSO) and evaluated at eleven concentrations. […]
Property: IC50; scope: individual compounds
Report as: number unit

The recorded IC50 for entry O=C(Nc1cnccc1-c1ccccc1)c1ccnc(Nc2cccc(F)n2)c1 equals 8.5 nM

The recorded IC50 for entry O=C(Nc1cncc(-c2ccccc2F)c1)c1ccnc(Nc2cccc(C(F)(F)F)n2)c1 equals 3.9 nM

The recorded IC50 for entry O=C(Nc1cncc(-c2ccccc2F)c1)c1ccnc(Nc2ccc(C(F)(F)F)cn2)c1 equals 11 nM

The recorded IC50 for entry O=C(Nc1cncc(-c2cc(F)ccc2F)c1)c1ccnc(Nc2ccc(C(F)(F)F)cn2)c1 equals 18 nM

The recorded IC50 for entry O=C(Nc1cnccc1-c1ccccc1)c1cc(Nc2ccc(C(F)(F)F)cn2)ncc1F equals 1.8 nM

The recorded IC50 for entry Cc1ccc(Nc2cc(C(=O)Nc3cnccc3-c3ccccc3)ccn2)nc1 equals 0.77 nM

The recorded IC50 for entry O=C(Nc1cnc(F)cc1OCC(F)(F)F)c1ccnc(Nc2ccc(C(F)(F)F)cn2)c1 equals 2.6 nM

The recorded IC50 for entry N#Cc1ccc(Nc2cc(C(=O)Nc3cncc4ccccc34)ccn2)nc1 equals 8.5 nM

The recorded IC50 for entry CC[C@@]1(c2cc(Cl)ncc2NC(=O)c2ccnc(Nc3ccc(C(F)(F)F)cn3)c2)OC[C@@H](C)O1 equals 2 nM

The recorded IC50 for entry O=C(Nc1cnccc1-c1ccc(F)cc1)c1ccnc(Nc2ccc(Cl)cn2)c1 equals 0.86 nM

The recorded IC50 for entry CC1CC1COc1cncc(NC(=O)c2ccnc(Nc3cccc(C(F)(F)F)n3)c2)c1 (stereo not drawn) equals 9.7 nM

The recorded IC50 for entry CCOc1ccncc1NC(=O)c1ccnc(Nc2cc(C)ccn2)c1 equals 1.4 nM

The recorded IC50 for entry CC(C)(C#N)c1ccc(Nc2cc(C(=O)Nc3cncc(-c4ccccc4F)c3)ccn2)nc1 equals 4.9 nM

The recorded IC50 for entry O=C(Nc1cnc(Cl)cc1C1(c2ccccc2)OCCO1)c1ccnc(Nc2ccc(C(F)(F)F)cn2)c1 equals 10 nM

* * *

Target: GSK3β (Homo sapiens)
Sequence (P49841 whole entry, species assumed): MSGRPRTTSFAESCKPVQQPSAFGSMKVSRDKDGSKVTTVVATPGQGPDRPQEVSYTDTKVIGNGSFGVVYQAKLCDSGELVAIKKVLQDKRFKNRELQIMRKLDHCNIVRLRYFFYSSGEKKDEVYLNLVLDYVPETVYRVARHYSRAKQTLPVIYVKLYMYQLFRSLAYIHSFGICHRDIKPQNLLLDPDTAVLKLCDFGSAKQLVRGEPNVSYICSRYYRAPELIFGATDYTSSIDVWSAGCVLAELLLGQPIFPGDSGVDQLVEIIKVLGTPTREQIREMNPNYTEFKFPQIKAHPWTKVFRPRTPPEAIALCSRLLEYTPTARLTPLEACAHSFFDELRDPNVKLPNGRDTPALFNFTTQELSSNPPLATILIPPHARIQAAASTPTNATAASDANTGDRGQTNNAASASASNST
Test: GSK3β kinase assay (Caliper LabChip, fluoresceinated peptide substrate)
Assay type: biochemical
Settings: first value of the cell; 250 pM enzyme, 20 uM ATP, 20 hours at room temperature; read-out: GSK3β/α (nM): GSK3β IC50
measure: IC50 (nM)
Express the result in nM but write the number alone.

compound=O=C(Nc1cnccc1SCC(F)(F)F)c1ccnc(Nc2ccc(C(F)(F)F)cn2)c1 units=nM measured_value=1.2
compound="CCC1(c2cc(Cl)ncc2NC(=O)c2ccnc(Nc3ccc(C(F)(F)F)cn3)c2)OC(C)C(C)O1 (stereo not shown)" units=nM measured_value=6.7
compound=O=C(Nc1cncnc1OCC(F)(F)F)c1ccnc(Nc2ccc(C(F)(F)F)cn2)c1 units=nM measured_value=3.2

The recorded IC50 for entry CC(O)c1ccncc1NC(=O)c1ccnc(Nc2ccc(C(F)(F)F)cn2)c1 (stereo not shown) equals 3.2

* * *

Property: pIC50; scope: individual molecules
Biological target: GSK3α (Homo sapiens)
Assay: GSK3α kinase assay (Caliper LabChip, fluoresceinated peptide substrate)
Assay type: biochemical
Worth noting: pIC50 values are minus log10 of concentrations stated in mol/L.

CC1OC(C)(c2cc(Cl)ncc2NC(=O)c2ccnc(Nc3ccc(C(F)(F)F)cn3)c2)OC1C (stereo not shown) [Example 78] on GSK3α (Homo sapiens) gives pIC50 = 8.49

Cc1ccnc(Nc2cc(C(=O)Nc3cncc(-c4ccccc4F)c3)ccn2)c1 [Example 132] on GSK3α (Homo sapiens) gives pIC50 = 8.21

O=C(Nc1cnccc1-c1ccccc1)c1ccnc(Nc2ccccn2)c1 [Example 1] on GSK3α (Homo sapiens) gives pIC50 = 8.59

O=C(Nc1cncc(-c2ccccc2)c1)c1ccnc(Nc2cccc(C(F)(F)F)n2)c1 [Example 144] on GSK3α (Homo sapiens) gives pIC50 = 7.41

* * *

Target: UniProt:P49840
Assay: GSK3α kinase assay (Caliper LabChip, fluoresceinated peptide substrate)
Type: biochemical
Details: second value of the cell; 250 pM enzyme, 20 uM ATP, 20 hours at room temperature; read-out: GSK3β/α (nM): GSK3α IC50
Define the label as 1 when IC50 is strictly less than 1 nM and as 0 in all remaining cases.

cpd_smiles=CC(C)S(=O)(=O)c1ccncc1NC(=O)c1ccnc(Nc2ccc(C(F)(F)F)cn2)c1 assigned_category=1
cpd_smiles=CCC1(c2cc(Cl)ncc2NC(=O)c2ccnc(Nc3ccc(C)cn3)c2)OCCO1 assigned_category=0
cpd_smiles=O=C(Nc1cnc(Cl)cc1C1(O)CCOCC1)c1ccnc(Nc2ccc(Cl)cn2)c1 assigned_category=0
cpd_smiles=CCC1(c2cc(Cl)ncc2NC(=O)c2ccnc(Nc3ccccn3)c2)OCCO1 assigned_category=1
cpd_smiles=CC(C)CS(=O)(=O)c1ccncc1NC(=O)c1ccnc(Nc2ccc(C(F)(F)F)cn2)c1 assigned_category=0
cpd_smiles=O=C(Nc1cnccc1C1CCOCC1)c1ccnc(Nc2ccc(C(F)(F)F)cn2)c1 assigned_category=0

API: query returns whether the compound falls strictly under 1 nM in IC50. Query: O=C(Nc1cnccc1-c1ccccc1)c1ccnc(Nc2cc(C(F)(F)F)ccn2)c1
0

API: query returns whether the compound falls strictly under 1 nM in IC50. Query: Cc1ccncc1NC(=O)c1ccnc(Nc2ccc(C#N)cn2)c1
0

* * *

Property: IC50; scope: individual compounds
Molecular target: GSK3α (Homo sapiens, UniProt P49840)
Sequence (P49840 whole entry, species assumed): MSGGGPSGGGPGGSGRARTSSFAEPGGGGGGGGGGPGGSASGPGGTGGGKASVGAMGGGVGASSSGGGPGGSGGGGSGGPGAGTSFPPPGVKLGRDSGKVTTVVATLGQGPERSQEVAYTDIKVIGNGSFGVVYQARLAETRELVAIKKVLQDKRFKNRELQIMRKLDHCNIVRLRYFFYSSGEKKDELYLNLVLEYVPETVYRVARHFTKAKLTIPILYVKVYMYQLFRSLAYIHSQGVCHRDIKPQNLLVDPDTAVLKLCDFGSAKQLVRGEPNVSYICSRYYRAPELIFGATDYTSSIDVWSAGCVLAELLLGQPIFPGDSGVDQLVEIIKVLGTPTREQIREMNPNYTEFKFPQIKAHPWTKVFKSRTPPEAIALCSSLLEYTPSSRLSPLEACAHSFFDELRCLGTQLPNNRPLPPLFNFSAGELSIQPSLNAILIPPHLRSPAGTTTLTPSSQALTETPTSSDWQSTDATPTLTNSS
Assay: GSK3α kinase assay (Caliper LabChip, fluoresceinated peptide substrate)
Assay type: biochemical
Express the result in nM but write the number alone.

The recorded IC50 for entry O=C(Nc1cnccc1Sc1ccccc1)c1ccnc(Nc2ccc(C(F)(F)F)cn2)c1 equals 1.1

The recorded IC50 for entry O=C(Nc1cnccc1-c1ccccc1)c1cc(Nc2ccc(C(F)(F)F)cn2)ncc1F equals 0.55

The recorded IC50 for entry O=C(Nc1cnccc1OCC(F)(F)F)c1cc(Nc2ccc(C(F)(F)F)cn2)ncc1F equals 0.73

The recorded IC50 for entry O=C(Nc1cnc(Cl)cc1C1(c2ccccc2)OCCO1)c1ccnc(Nc2ccc(C(F)(F)F)cn2)c1 equals 5.5

* * *

Target: GSK3α (Homo sapiens, UniProt P49840)
Test: GSK3α kinase assay (Caliper LabChip, fluoresceinated peptide substrate)
Assay type: biochemical
Property: IC50; scope: individual molecules
Report as: number unit

molecule="CCc1cccc(Nc2cc(C(=O)Nc3cncc(-c4ccccc4F)c3)ccn2)n1 [Example 138]" tested_on="GSK3α (Homo sapiens, UniProt P49840)" measure=IC50 measured_value="2.2 nM"
molecule="O=C(Nc1cncnc1)c1ccnc(Nc2ccc(C(F)(F)F)cn2)c1 [Example 191]" tested_on="GSK3α (Homo sapiens, UniProt P49840)" measure=IC50 measured_value="9 nM"
molecule="O=C(Nc1cnc2cccnn12)c1ccnc(Nc2ccc(C(F)(F)F)cn2)c1 [Example 210]" tested_on="GSK3α (Homo sapiens, UniProt P49840)" measure=IC50 measured_value="11 nM"

CC1(c2cc(OCCO)ncc2NC(=O)c2ccnc(Nc3ccc(C(F)(F)F)cn3)c2)OCCO1 [Example 84] on GSK3α (Homo sapiens, UniProt P49840) gives IC50 = 5 nM
